# Tested on: EKVX
# protocol: relative viability (nuclei count vs DMSO), 5 days (fraction); higher = more cells survive
# conditions used: first compound 0.1581 µM
property: relative viability

[[record]]
compound = "COc1cc2nccc(Oc3ccc(NC(=O)Nc4cc(C)on4)c(Cl)c3)c2cc1OC [Tivozanib] + NC(=O)Nc1cc(-c2cccc(F)c2)sc1C(=O)N[C@H]1CCCNC1 [AZD7762] (partner 0.2 µM)"
endpoint_value = 0.69

[[record]]
compound = "Nc1ccn([C@@H]2O[C@H](CO)[C@@H](O)[C@@H]2O)c(=O)n1 [Cytarabine] + C[C@@H](Oc1cc(-c2cnn(C3CCNCC3)c2)cnc1N)c1c(Cl)ccc(F)c1Cl [Crizotinib] (partner 1 µM)"
endpoint_value = 0.368

[[record]]
compound = "Nc1ccn([C@@H]2O[C@H](CO)[C@@H](O)[C@@H]2O)c(=O)n1 [Cytarabine] + O=C(CCCCCCC(=O)Nc1ccccc1)NO [Vorinostat] (partner 1 µM)"
endpoint_value = 0.494

[[record]]
compound = "COc1cc2nccc(Oc3ccc(NC(=O)Nc4cc(C)on4)c(Cl)c3)c2cc1OC [Tivozanib] + CCNC(=O)c1noc(-c2cc(C(C)C)c(O)cc2O)c1-c1ccc(CN2CCOCC2)cc1 [Luminespib] (partner 0.01 µM)"
endpoint_value = 0.908

[[record]]
compound = "Nc1ccn([C@@H]2O[C@H](CO)[C@@H](O)[C@@H]2O)c(=O)n1 [Cytarabine] + CS(=O)(=O)CCNCc1ccc(-c2ccc3ncnc(Nc4ccc(OCc5cccc(F)c5)c(Cl)c4)c3c2)o1 [Lapatinib] (partner 2 µM)"
endpoint_value = 0.138

[[record]]
compound = "Nc1ccn([C@@H]2O[C@H](CO)[C@@H](O)[C@@H]2O)c(=O)n1 [Cytarabine] + CCNC(=O)c1noc(-c2cc(C(C)C)c(O)cc2O)c1-c1ccc(CN2CCOCC2)cc1 [Luminespib] (partner 0.01 µM)"
endpoint_value = 0.287

